Listed below: Corn plant response rating values for each entry.
Tested on: corn
experimental.details: Test B pre/postemergence corn
Format: in vivo, Zea mays
condition: Preemergence, Rate 500 g/ha; scale 0 to 10, 0 is no effect, 10 is complete control
outcome.measure: Corn plant response rating

CC(C)N(C(=O)n1oc(=O)n(CNC(=O)c2ccccc2)c1=O)c1ccc(F)cc1 ... 0
COCC(OC)n1c(=O)on(C(=O)N(c2ccc(F)cc2)C(C)C)c1=O (centres unmarked) ... 6
CC(C)N(C(=O)n1oc(=O)n(CCCl)c1=O)c1ccc(Cl)cc1 ... 4
COC(OC)C(C)n1c(=O)on(C(=O)N(c2ccc(F)cc2F)C(C)C)c1=O (centres unmarked) ... 7
CC(C)N(C(=O)n1oc(=O)n(C(C)C2CC2)c1=O)c1ccc(F)cc1 (centres unmarked) ... 6

* * *

Test system: purple nutsedge
experimental.details: Test B pre/postemergence purple nutsedge
Assay type: in vivo, Cyperus rotundus
condition: Preemergence, Rate 500 g/ha; scale 0 to 10 (0 no effect, 10 complete control)
outcome.measure: Nutsedge plant response rating

Cc1nn(C)c(C)c1-n1c(=O)on(C(=O)N(c2ccccc2)C(C)C)c1=O [Compound 120] ... 0
CCCn1c(=O)on(C(=O)N(c2ccc(Cl)cc2)C(C)C)c1=O [Compound 119] ... 6
CC(C)N(C(=O)n1oc(=O)n(C2CCCCC2)c1=O)c1ccc(F)cc1 [Compound 110] ... 0
CC1CCCCC1n1c(=O)on(C(=O)N(c2ccc(F)cc2F)C(C)C)c1=O (stereo not shown) [Compound 172] ... 0

* * *

System: bermuda-grass
experimental.details: Test D bermudagrass
Format: in vivo, Cynodon dactylon
condition: Rate 16 g/ha; Preemergence; 0 to 100 scale, 0 no injury, 100 complete control
outcome.measure: Plant response rating, Bermudagrass

CCCn1c(=O)on(C(=O)N(c2ccc(Cl)cc2)C(C)C)c1=O ... 50
CCn1c(=O)on(C(=O)N(c2ccc(Cl)cc2)C(C)C)c1=O ... 85
Cc1cccc(C)c1-n1c(=O)on(C(=O)N(c2ccccc2)C(C)C)c1=O ... 65
Cc1ccccc1-n1c(=O)on(C(=O)N(c2ccc(F)cc2)C(C)C)c1=O ... 0

* * *

System: rape
experimental.details: Test B pre/postemergence rape
Format: in vivo, Brassica napus
condition: Rate 500 g/ha, Postemergence; scale 0 to 10, 0 is no effect, 10 is complete control
outcome.measure: Rape plant response rating

CC(C)N(C(=O)n1oc(=O)n(CCC(=O)N(C)C)c1=O)c1ccccc1 ... 2
COC(=O)C(c1ccccc1)n1c(=O)on(C(=O)N(c2ccc(F)cc2)C(C)C)c1=O (stereo not shown) ... 0
C#CCCn1c(=O)on(C(=O)N(c2ccc(F)cc2F)C(C)C)c1=O ... 8
CCC(C)n1c(=O)on(C(=O)N(c2ccc(F)cc2)C(C)C)c1=O (stereo not shown) ... 5

* * *

Test system: surinam grass
experimental.details: Test B pre/postemergence surinam grass
Assay type: in vivo, Brachiaria decumbens
condition: Preemergence, Rate 500 g/ha; scale 0 (no effect) to 10 (complete control)
outcome.measure: B. signalgrass plant response rating

CC(C)N(C(=O)n1oc(=O)n(-c2cc(Cl)cc(Cl)c2)c1=O)C1=CCOCC1 ... 0
C=CCn1c(=O)on(C(=O)N(c2ccccc2)C(C)C)c1=O ... 8
CCN(CC)C(=O)n1oc(=O)n(-c2ccc(OC)cc2)c1=O ... 6
CCN(C(=O)n1oc(=O)n(-c2c(C)cc(C)cc2C)c1=O)C1CCCCC1 ... 0
CC(C)N(C(=O)n1oc(=O)n(Cc2cccs2)c1=O)c1ccc(F)cc1 ... 4
